Assay: viability loss in PTEN-deleted colon tumor cells – cell-based, HCT116, CellTiter-Glo, primary screen (AID 827);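 also: PTEN knockout HCT116 line with beta catenin targeted HCT116 as companion control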
Settings: HCT116 PTEN-null viability, 60 h, at 10 µM, hits give low values
About 1,700 (1.2%) of roughly 140,000 compounds were called active. Many of the other results were omitted from the sample, so actives are more common in it than they were.
quantity.name: viability (%)

>>> result_value("O=C(/C=C/c1ccc(Cl)cc1Cl)NCc1ccco1")
96.5
>>> result_value("Cc1c(Cl)cnc(NC(=O)COC(=O)c2ccc(S(=O)(=O)NCc3ccco3)cc2)c1Cl")
85.2
>>> result_value("O=C(NCCN1CCN(Cc2ccccc2)CC1)c1cc2c(=O)[nH]c3ccccc3c2s1")
2.62
>>> result_value("CN1CCN(CCCNC(=O)c2cc3c(=O)oc4ccccc4c3s2)CC1")
109
>>> result_value("CC(=O)c1c(C)[nH]c(C(=O)OCC(=O)Nc2sc3c(c2C#N)CCCC3)c1C")
66.9
>>> result_value("COc1ccc(CC(=O)N/N=C(\\C)c2ccccn2)cc1")
4.88
>>> result_value("COc1ccc(/C(N)=N/OC(=O)CCCc2ccccc2)cc1")
94.9
>>> result_value("COC(=O)c1ccc(C(=O)OC)c(NC(=S)N2CCN(c3cc(Cl)ccc3C)CC2)c1")
90.3
>>> result_value("Cc1cc(F)ccc1S(=O)(=O)N1CCCOC1CNC(=O)C(=O)NCCC1=CCCCC1 (stereo unspecified)")
93.5
>>> result_value("Cc1ccc(Cl)cc1N1CCN(C(=O)c2cccc3c(=O)c(C)c(-c4ccccc4)oc23)CC1")
1.24
>>> result_value("CCCOc1ccc(C(=O)C(CCC(CNCC)C(=O)c2ccc(OCCC)cc2)CNCC)cc1 (stereo unspecified)")
0.64
>>> result_value("COc1cc(NC(=O)COC(=O)CSc2ccc3ccccc3c2)c(C)cc1[N+](=O)[O-]")
96.9
>>> result_value("COc1cccc(/C=N/NC(=O)c2cccc([N+](=O)[O-])c2)c1OS(=O)(=O)c1ccc(C)cc1")
71.7
>>> result_value("Cc1ccc2sc(NNC(=O)c3ccc4c(c3)OCCO4)nc2c1C")
68.3
>>> result_value("CCn1cc(/C=C2/SC(=S)NC2=O)c(C)n1")
103
>>> result_value("O=C1/C(=C\\c2ccccc2Cl)SC(=S)N1CCC(=O)N1CCCc2ccccc21")
2.6
>>> result_value("COc1ccccc1OCC(=O)OCn1c(SC)nnc(C)c1=O")
98.3
>>> result_value("O=C(c1cccc2ccccc12)N1CCN(c2ccccc2F)CC1")
90.8
>>> result_value("CCCCOc1ccc(C(=O)NN2CCN(C)CC2)cc1")
102
>>> result_value("CCC(=O)Nc1ccc(C(=O)Nc2ccc3c(c2)C(=O)N(CC2CCCO2)C3=O)cc1 (stereo unspecified)")
107
>>> result_value("CCN(CC)S(=O)(=O)c1ccc(C)c(NC(=O)COc2ccc(Br)cc2Cl)c1")
84.6

----------
Assay: viability loss in PTEN-deleted colon tumor cells – cell-based, HCT116, CellTiter-Glo, primary screen (AID 827);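 also: PTEN knockout HCT116 line with beta catenin targeted HCT116 as companion control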
Conditions: HCT116 PTEN-null viability, 60 h, at 10 µM, hits give low values
Hit rate of the full screen: of about 140,000 compounds, about 1,700 (1.2%) were called active. Only a selection was taken, and actives are over-represented in it overall.
quantity.name: viability

>>> result_value("CCc1ccccc1NC(=O)CN(C)C(=O)COc1ccc(C)nc1[N+](=O)[O-]")
"95.3% (inactive)"
>>> result_value("O=C(Cc1ccccc1)Nc1cccc(C(=O)N/N=C/c2ccco2)c1")
"92.6% (inactive)"
>>> result_value("Cc1nn(Cc2ccccc2)c(C)c1C(=O)NCCN1C(=O)S/C(=C\\c2ccc(F)cc2)C1=O")
"97.4% (inactive)"
>>> result_value("CSc1nc(C)cc(SC(C(C)=O)C(=O)Nc2ccccc2)n1 (stereo unspecified)")
"88.1% (inactive)"
>>> result_value("COc1ccc(C2CC(c3ccccc3)=NN2C(=O)CSc2nccc(=O)[nH]2)cc1 (stereo unspecified)")
"101% (inactive)"
>>> result_value("O=C(Nc1ccccc1F)c1ccccc1-c1ccccc1")
"87% (inactive)"
